biological target: CRTh2 receptor (Homo sapiens)
Sequence (Q9Y5Y4 whole entry): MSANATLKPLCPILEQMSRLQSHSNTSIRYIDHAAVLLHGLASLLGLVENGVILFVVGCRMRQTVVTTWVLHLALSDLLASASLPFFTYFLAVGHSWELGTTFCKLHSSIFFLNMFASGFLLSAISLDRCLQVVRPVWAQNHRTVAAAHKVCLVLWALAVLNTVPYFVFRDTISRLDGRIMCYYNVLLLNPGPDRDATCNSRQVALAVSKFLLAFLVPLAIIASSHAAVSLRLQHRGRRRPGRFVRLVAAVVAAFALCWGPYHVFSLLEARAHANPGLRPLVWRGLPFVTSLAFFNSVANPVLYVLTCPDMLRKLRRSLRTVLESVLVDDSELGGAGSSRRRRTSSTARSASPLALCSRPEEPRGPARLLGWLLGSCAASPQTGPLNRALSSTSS
readout: pKi
One number for each entry, as −log10 of the molar value.

Illustrative cases are given below, each with its answer.
-- ask Fill in the blank: the reported pKi of COc1cc(S(=O)(=O)n2c(C)c(CC(=O)O)c3cccnc32)ccc1F [Example 102] is ____.
-- reply 7.25

-- ask Consider the compound shown here: Cc1c(CC(=O)O)c2cccnc2n1C(C)c1ccc(Cl)cc1 (stereo not drawn) [Example 84] What is its recorded pKi?
-- reply 7.00

-- ask If you can, please state the reported pKi value of COc1cc(S(=O)(=O)n2c(C)c(CC(=O)O)c3cccnc32)ccc1Cl [Example 148] .
-- reply 7.19

-- ask // query pKi value for entry CCS(=O)(=O)c1ccc(Cn2c(C)c(CC(=O)O)c3cccnc32)c(C(F)(F)F)c1 [Example 93]
-- reply 8.10

-- ask Any idea what pKi was measured for Cc1c(CC(=O)O)c2cccnc2n1Cc1ccc(S(C)(=O)=O)cc1 [Example 96] ?
-- reply 7.54

-- ask Please report the recorded pKi for Cc1c(CC(=O)O)c2cccnc2n1S(=O)(=O)c1ccc(Cl)c(C#N)c1 [Example 103] .
-- reply 7.46

-- ask Bench note: what pKi did COc1cc(S(=O)(=O)n2c(C)c(CC(=O)O)c3cccnc32)ccc1C#N [Example 129] show?
-- reply 7.37

-- ask State the recorded pKi for this entry: CCS(=O)(=O)c1ccc(Cn2c(C)c(CC(=O)O)c3cccnc32)c(Cl)c1 [Example 94]
-- reply 8.15

Alright, here's another compound for you.
-- ask # get_value(readout='pKi', item= Cc1c(CC(=O)O)c2cccnc2n1Cc1ccc([N+](=O)[O-])cc1 [Example 122] )
-- reply 6.83
